Where these numbers come from: the Deep4Chem optical property database

assay_info: solvent given as SMILES
test_context: in Cc1ccccc1
Hi there, I'd appreciate the recorded absorption maximum for every entry that follows.
Hi! Could you send only the number? It should be in nm, unit omitted.

Determine its reported absorption maximum: "Cc1nc(-c2ccc(N3c4ccccc4C(c4ccccc4)(c4ccccc4)c4ccccc43)cc2)cc(-c2ccc(N3c4ccccc4C(c4ccccc4)(c4ccccc4)c4ccccc43)cc2)n1"
370

Determine its reported absorption maximum: "CN(C)c1ccc(/C=C/C(=C(C#N)C#N)c2ccc3c4c(cccc24)CC3)cc1"
487

Determine its reported absorption maximum: "CCCCOc1ccc(-c2oc3cc4n(c3c2-c2ccc(OCCCC)cc2)[B-](F)(F)[N+]2=Cc3cc5oc(-c6ccc(OCCCC)cc6)c(-c6ccc(OCCCC)cc6)c5n3[B-](F)(F)[N+]2=C4)cc1"
608

Determine its reported absorption maximum: "Cc1ccc(OCc2cc(=O)oc3c2ccc2ccccc23)cc1"
354

Determine its reported absorption maximum: "CCOC(=O)/C(C#N)=C/c1cc2c3ccccc3n(C)c2cc1OC"
407

Determine its reported absorption maximum: "COc1ccccc1-c1nc2c3ccccc3c3ccccc3c2n1-c1ccc(C)cc1"
359

Determine its reported absorption maximum: "COc1ccc2c3ccc(OC)cc3n(-c3ccc(-c4nnc(-c5c(C)cc(C)cc5C)o4)cc3C)c2c1"
319

Determine its reported absorption maximum: "COc1ccc(-c2csc(/C(C#N)=C\Nc3ccc(C#N)cc3)n2)cc1"
381

Determine its reported absorption maximum: "CCCCCCC(CCCCCC)N1C(=O)c2cccc3c(-c4cc(OC)c(OC)c(OC)c4)ccc(c23)C1=O"
360.8

====

Hi there, I'd appreciate the recorded absorption maximum for every entry that follows.
assay_info: solvent given as SMILES
test_context: in CCO
Hi! Could you send only the number? It should be in nm, unit omitted.

Determine its reported absorption maximum: "Cc1ccccc1/C(C#N)=C/c1ccc(N(C)C)cc1"
376

Determine its reported absorption maximum: "Oc1ccccc1/C=N/N=C/c1ccccc1O"
356

Determine its reported absorption maximum: "N#C/C(=C\c1ccncc1)c1nc(-c2ccccc2)cs1"
370

Determine its reported absorption maximum: "CCN1\C(=C/C=C/C=C/C2=[N+](CC)c3ccc4cc(Br)ccc4c3C2(C)C)C(C)(C)c2c1ccc1cc(Br)ccc21"
685

Determine its reported absorption maximum: "CN(C)CCN(Cc1c2ccccc2cc2ccccc12)c1ccc([N+](=O)[O-])cc1[N+](=O)[O-]"
394

====

assay_info: solvent given as SMILES
test_context: in CCCCCC
Give satisfied when the value for absorption maximum is at least 400 nm. Give not satisfied when it is less.

Is absorption maximum for "O=Cc1ccc(-c2ccc(C3=CCCCC3)s2)s1" at or above 400 nm?
not satisfied

Is absorption maximum for "CC(C)(C)c1ccc2c(c1)c1cc3c4cc(C(C)(C)C)ccc4c4c5c6ccc(C(C)(C)C)cc6c6cc7c8cc(C(C)(C)C)ccc8c8c2c1c(c34)c(c78)c65" at or above 400 nm?
satisfied

Is absorption maximum for "N#CSc1ccc2n1[B-](F)(F)[N+]1=C(N3CCOCC3)C=CC1=C2c1ccccc1" at or above 400 nm?
satisfied

Is absorption maximum for "c1ccc(-c2nc(-c3ccc(-c4ccc(-n5c6ccccc6c6ccccc65)cc4)cn3)oc2-c2ccccc2)cc1" at or above 400 nm?
not satisfied

Is absorption maximum for "CCN=C=S" at or above 400 nm?
not satisfied

Is absorption maximum for "COc1ccc(N2c3cc(OC)ccc3N=c3cc4c(cc32)=Nc2cc(C(C)(C)C)cc(C(C)(C)C)c2O4)cc1" at or above 400 nm?
satisfied

Is absorption maximum for C1=C(c2ccc(-c3cccs3)s2)CCC(c2ccccc2)C1 (stereo not given) at or above 400 nm?
not satisfied

Is absorption maximum for "CCc1c(C)c2n(c1C)[B-](F)(F)[N+]1=C(c3ccc[nH]3)c3ccccc3C1=C2C" at or above 400 nm?
satisfied

Is absorption maximum for "CC1=C2C=CC(C)=[N+]2[B-](F)(F)n2cccc21" at or above 400 nm?
satisfied

Is absorption maximum for "O=C1Nc2ccccc2/C1=C/C(=O)c1ccc([N+](=O)[O-])cc1" at or above 400 nm?
not satisfied

Is absorption maximum for COC1(OC)C2(Cl)c3nc4cc(-c5cccs5)ccc4nc3C1(Cl)C1C[C@H]3[C@@H](CC12)C1(Cl)c2nc4ccc(-c5cccs5)cc4nc2C3(Cl)C1(OC)OC (stereo not given in full) at or above 400 nm?
not satisfied

Is absorption maximum for "CC(C)[Si](C#Cc1ccc(C#C[Si](C(C)C)(C(C)C)C(C)C)c2nc3ccccc3nc12)(C(C)C)C(C)C" at or above 400 nm?
satisfied

Is absorption maximum for "Cc1cc(C)c(C2=[N+]3C(=Cc4c(C)cc(C)n4[B-]3(F)F)c3ccccc32)[nH]1" at or above 400 nm?
satisfied

Is absorption maximum for "CC(C)(C)c1cc2ccc3cc(C(C)(C)C)cc4c3c2c(c1)c(=O)n1c4nc2c3ccccc3c3ccccc3c21" at or above 400 nm?
not satisfied

Is absorption maximum for "CCc1c(C)[nH]c(C2=[N+]3C(=Cc4c(C)c(CC)c(C)n4[B-]3(F)F)c3ccccc32)c1C" at or above 400 nm?
satisfied

Is absorption maximum for "CC1=[N+]2C(=C(c3c4ccccc4c(-c4ccccc4)c4ccccc34)c3ccc(C)n3[B-]2(F)F)C=C1" at or above 400 nm?
satisfied

Is absorption maximum for "CCCCC1(CCCC)c2cc(-c3ccc(C=C4C(=O)c5ccccc5C4=O)cc3)ccc2-c2ccc(-c3ccc(C=C4C(=O)c5ccccc5C4=O)cc3)cc21" at or above 400 nm?
satisfied

Is absorption maximum for "N#CC1=C(c2ccc(-c3cccs3)s2)CCC1" at or above 400 nm?
not satisfied

Is absorption maximum for "CCCN(CCC)CCC" at or above 400 nm?
not satisfied

Is absorption maximum for COC(=O)C(Cc1ccc2oc(-c3ccc(N(C)C)cc3)nc2c1)NC(=O)OC(C)(C)C (stereo not given) at or above 400 nm?
not satisfied

Is absorption maximum for "F[B-]1(F)n2c(nc3c4ccccc4c4ccccc4c32)-c2cccc[n+]21" at or above 400 nm?
satisfied

Is absorption maximum for "CCCCCC(=O)c1c2c(c(C(=O)CCCCC)c3c1OC1(CCCC1)O3)OC1(CCCC1)O2" at or above 400 nm?
satisfied

Is absorption maximum for "CC(C)(C)c1ccc(-c2nc3c4ccc(-c5ccccc5)cc4c4cc(-c5ccccc5)ccc4c3n2-c2ccc(C(C)(C)C)cc2)cc1" at or above 400 nm?
not satisfied

Is absorption maximum for "c1ccc2cc3cc(-c4cc(-c5nccs5)nc(-c5nccs5)c4)ccc3cc2c1" at or above 400 nm?
not satisfied
